target: 11β-hsd-1 enzyme (Homo sapiens); assay: 11β-hsd-1 enzyme assay, Kiapp determination (3H-cortisone to cortisol, radio-HPLC); type: biochemical; conditions: apparent Ki, 11β-hsd-1 enzyme; read-out: Ki app
Sequence (P28845 whole entry, species assumed): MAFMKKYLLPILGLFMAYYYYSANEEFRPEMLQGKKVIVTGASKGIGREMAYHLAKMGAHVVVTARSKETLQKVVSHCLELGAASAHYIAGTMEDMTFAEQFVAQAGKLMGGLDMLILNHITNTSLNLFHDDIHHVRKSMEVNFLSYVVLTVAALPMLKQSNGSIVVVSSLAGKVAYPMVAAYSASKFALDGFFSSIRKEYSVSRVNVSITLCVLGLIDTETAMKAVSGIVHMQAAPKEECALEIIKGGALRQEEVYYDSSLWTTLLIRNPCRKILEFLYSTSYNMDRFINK
pKi: −log10 of the molar value.
Measured quantity: pKi

// solved cases for pKi follow
| Compound | Data value |
| --- | --- |
| Cc1cccc(NS(=O)(=O)c2ccc(-c3cc(F)cc(F)c3)c(C)c2)n1 [Example 225] | 7.80 |
| COc1cc(-c2ccc(S(=O)(=O)Nc3cccc(C)n3)cc2)ccc1C#N [Example 270] | 7.97 |
| Cc1cccc(NS(=O)(=O)c2ccc(-c3ccc(C#N)c(Cl)c3)cc2)n1 [Example 274] | 8.46 |
| N#Cc1ccc(-c2ccc(S(=O)(=O)Nc3ccc4ccccc4n3)cc2)cn1 [Example 289] | 7.17 |

[I] Cc1cccc(NS(=O)(=O)c2ccc(-c3ccncc3)cc2)n1 [Example 257]
[II] Cc1cccc(NS(=O)(=O)N2CCC(c3ccccc3)CC2)n1 [Example 306]
Lower pKi: I or II ? Please identify the chosen entry by its label.
I

Source listed as patent US20050148631A1.
